FYI, the data here is from ChEMBL document CHEMBL5390272.

# System: HEK293
# protocol details: Cytotoxicity against AC1 expressed HEK293 cells by CellTiter-Glo 2.0 assay relative to control
# Assay type: toxicity, cell-based
# Set-up: concentration or dose not given beside the values
# recorded conditions: human
measured property: Activity (%)
Give just the numeric value; % need not be written.

Example compounds with recorded Activity:
# query smiles, measured property, experimental value
records = [
    ("CCc1cn(CCOCP(=O)(N[C@@H](Cc2ccccc2)C(=O)OC(C)C)N[C@@H](Cc2ccccc2)C(=O)OC(C)C)c2ncnc(N)c12", "Activity", 90),
    ("CC(C)OC(=O)[C@H](Cc1ccccc1)NP(=O)(COCCn1cc(C#Cc2ccccc2)c2c(N)ncnc21)N[C@@H](Cc1ccccc1)C(=O)OC(C)C", "Activity", -9),
    ("Cc1cn(CCOCP(=O)(N[C@@H](Cc2ccccc2)C(=O)OC(C)C)N[C@@H](Cc2ccccc2)C(=O)OC(C)C)c2ncnc(N)c12", "Activity", 93),
    ("CC(C)OC(=O)[C@H](Cc1ccccc1)NP(=O)(COCCn1cc(-c2ccccc2)c2c(N)ncnc21)N[C@@H](Cc1ccccc1)C(=O)OC(C)C", "Activity", -18),
    ("CC(C)OC(=O)[C@H](Cc1ccccc1)NP(=O)(COCCn1cc(-c2ccccn2)c2c(N)ncnc21)N[C@@H](Cc1ccccc1)C(=O)OC(C)C", "Activity", -17),
]

Could you now look at the following compound, please?
Kindly state the measured Activity obtained for `COc1cccc(-c2cn(CCOCP(=O)(N[C@@H](Cc3ccccc3)C(=O)OC(C)C)N[C@@H](Cc3ccccc3)C(=O)OC(C)C)c3ncnc(N)c23)c1` with HEK293.
-14

---

List of Activity values.
# System: HEK293
# protocol details: Cytotoxicity against AC1 expressed HEK293 cells by CellTiter-Glo 2.0 assay relative to control
# Type: toxicity, cell-based
# Design: concentration or dose not given beside the values
# recorded conditions: human
Give just the numeric value; % need not be written.

Example compounds with recorded Activity:
# query smiles, Activity / %
measured = [
    ("C=C(C)c1cn(CCOCP(=O)(N[C@@H](Cc2ccccc2)C(=O)OC(C)C)N[C@@H](Cc2ccccc2)C(=O)OC(C)C)c2ncnc(N)c12", 31),
    ("COc1ccccc1-c1cn(CCOCP(=O)(N[C@@H](Cc2ccccc2)C(=O)OC(C)C)N[C@@H](Cc2ccccc2)C(=O)OC(C)C)c2ncnc(N)c12", -12),
]

Could you now look at the following compound, please?
Kindly state the measured Activity obtained for `CC(C)OC(=O)[C@H](Cc1ccccc1)NP(=O)(COCCn1cc(-c2cncnc2)c2c(N)ncnc21)N[C@@H](Cc1ccccc1)C(=O)OC(C)C` with HEK293.
102

---

# Tested on: HEK293
# protocol details: Cytotoxicity against AC1 expressed HEK293 cells by CellTiter-Glo 2.0 assay relative to control
# Assay type: toxicity, cell-based
# Set-up: concentration or dose not given beside the values
# recorded conditions: human
// classify: if (Activity < 50%) true (1) else false (0)

# query smiles, experimental system, group
measured = [
    ("COc1ccc(-c2cn(CCOCP(=O)(N[C@@H](Cc3ccccc3)C(=O)OC(C)C)N[C@@H](Cc3ccccc3)C(=O)OC(C)C)c3ncnc(N)c23)cc1", "HEK293", "true (1)"),
    ("CC(C)OC(=O)[C@H](Cc1ccccc1)NP(=O)(COCCn1cc(-c2cccc(C(N)=O)c2)c2c(N)ncnc21)N[C@@H](Cc1ccccc1)C(=O)OC(C)C", "HEK293", "false (0)"),
    ("CC(C)OC(=O)[C@H](Cc1ccccc1)NP(=O)(COCCn1cc(-c2cccc(-c3nn[nH]n3)c2)c2c(N)ncnc21)N[C@@H](Cc1ccccc1)C(=O)OC(C)C", "HEK293", "false (0)"),
    ("CC(C)OC(=O)[C@H](Cc1ccccc1)NP(=O)(COCCn1cc(-c2cccc(C#N)c2)c2c(N)ncnc21)N[C@@H](Cc1ccccc1)C(=O)OC(C)C", "HEK293", "true (1)"),
]

Given `C#Cc1cn(CCOCP(=O)(N[C@@H](Cc2ccccc2)C(=O)OC(C)C)N[C@@H](Cc2ccccc2)C(=O)OC(C)C)c2ncnc(N)c12` , is recorded Activity strictly lower than 50%?
false (0)

Similarly, `CC(C)OC(=O)[C@H](Cc1ccccc1)NP(=O)(COCCn1cc(-c2cccc(S(N)(=O)=O)c2)c2c(N)ncnc21)N[C@@H](Cc1ccccc1)C(=O)OC(C)C` ?
false (0)
